I'd be grateful if you could share measured EC50 for these entries.
System: MB002 cells
Assay: Cell viability
Format: cell-based
Conditions: Homo sapiens, MB002, 72 h, read-out: EC50 (nM) MB002
Give bare numbers, in nM.

Cc1c(Cl)cccc1S(=O)(=O)Nc1ccc2c(c1)C(=O)N(C1CCC(=O)NC1=O)C2=O (centres unmarked)    5010

In: Sample O=C1CCC(N2C(=O)c3ccc(NS(=O)(=O)c4ccccc4OC(F)(F)F)cc3C2=O)C(=O)N1 (centres unmarked) — what was its EC50?
Out: 726

====

Test: Liver microsomes stability assay, human
Type: in vitro ADME
Conditions: pooled liver microsomes, pH 7.4
readoutKind: CLint scaled at 4 h, 10 µM (mL/min/kg)
Answers are plain numbers, in mL/min/kg.

In: Sample O=C1CCC(N2C(=O)c3ccc(NS(=O)(=O)c4ccccc4OC(F)(F)F)cc3C2=O)C(=O)N1 (stereo not shown) — what was its CLint scaled at 4 h, 10 µM?
Out: 4
